assay: PET hydrolysis, aromatic products released after 48 h (umol product/mg enzyme); higher = more PET depolymerization activity; settings: substrate: cryPow; 40 °C; pH 7.5
metricName: PET hydrolysis

sequenceChain	metricName	measuredResult
ADNPYQRGPDPTLASVSAQRGTFATAQVAVPAGDGFGGGMIYYPTDTSQGTFGAVAIVPGYTARFSVEEAWMGHWLASFGFVVIGVETNSTNDFDTARGTQLLAALDYLTQRSSVRDRVDASRQSVVGHSMGGGGALYAAGQRASLKAAVGLAPYKPSGNPTNVRVPTMIISGQNDTVVTPSYATGLYNTLPATTESAYMEFTGADHLFPTRANTLEMRILIPWLKIFVDSDNRYSQFLCPLQDSTGIRGYRSTCPFLPNPTTSPSTTAPTTPPTTPPTTPPTGACSATYRTVNSWPGGFQGEVTVSAGSTPVDGWAVRWTLASGQAVTQVWNGALSVSGSAVTVRNTTYNGSLGANASTTFGFLASGSPTPVSLTCTSP [ESM033]	PET hydrolysis	6
